- Test system: ATP;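 further: ATP exposure 15 min at 22 °C before imaging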
- experiment_description: switch fluorescence ratio, 500 uM ATP over buffer (Cy3 cluster intensity, sum of 5 cycles each) (fold (ratio)); higher = stronger signal-on switching upon ATP binding; sequences stand for … in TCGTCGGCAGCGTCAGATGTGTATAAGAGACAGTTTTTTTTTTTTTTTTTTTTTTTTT…TC
- test_settings: aptamer strand: ATP DNA aptamer (quencher-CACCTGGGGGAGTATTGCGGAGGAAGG + anchor), 100 nM annealed; ATP concentration: 500 uM
Recorded measurements of switch fluorescence ratio, one per entry
recorded_endpoint: switch fluorescence ratio

item_sequence	result
TTCTGGGGGT	0.999
GCCGCGGGGT	1
TTCAATTGGA	1
GGCAGTTGTG	0.986
GAGTCACGGA	1.01
CCAGGAGGAG	1
GAATTGGGAG	0.998
TTTGAGTGGT	0.993
TTTTGCTCAA	0.996
TGTTTTTAGC	1.02
GGTTCAAGTT	0.982
CGTATTTTAG	1
TTCTAGTGGG	1
TAGTTTGGGG	0.999
AGATGTCCTT	1.02
TTATTGGGGG	0.982
CCTTTTTTTT	1.01
TCCGGGCCTT	1.02
GTTGAAGGGA	0.983
TGACCTCGTG	0.995
TATAAAGGGG	1
TTAGGACCCT	1.01
CACGAGGTTG	0.992
GCCCCATTTT	1.01
AGTAATGGTT	1.01
GTTATGAGTT	0.975
CATGTCTCTC	1.02
CCGTTGGTGG	0.983
TTTATTAGTA	0.983
GGGGGCAAAT	0.993
